experiment: murine CD8 T cell vesicle adhesion modulation – mouse 2C CD8+ T cells, flow cytometry, primary screen (AID 2052); settings: 2C CD8+ T cell-vesicle binding, at 7 µM, stronger effect = lower value; measured here: CD8+ vesicle-bound cell fraction;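 note: binding gate set so that unloaded-vesicle control wells show 10% double positive cells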
Out of some 330,000 compounds screened, about 220 (0.067%) were called active. The sample as a whole holds a higher share of actives than the screen did.
molecules and their reported double positive events
Give just the numeric value; % need not be written.

molecule="NC(=O)C[C@@H]1NC(=O)CNC(=O)c2cc([N+](=O)[O-])cc(I)c2NCCC(C(N)=O)NC1=O (some centres undefined)" unitlabel=% resultnumber=24.2
molecule=CCn1c2c(c3ccc(OC)cc31)CCCC2=O unitlabel=% resultnumber=43.3
molecule="COC(=O)C1=CO[C@@H](O[C@@H]2O[C@H](CO)[C@@H](O)[C@H](O)[C@H]2O)C2C1C[C@H](O)[C@@H]2C (some centres undefined)" unitlabel=% resultnumber=33.1

We next turn to a different molecule, shown below.
Name the recorded double positive events for "Cc1ccc(S(=O)(=O)NCCC(=O)NC2CCN(Cc3ccccc3)CC2)cc1" .
42.6

Just for reference, PubChem BioAssay AID2052 is where these values come from.
